molecular target: T1, human Claudin18.2 (Homo sapiens, UniProt P56856); experiment: Cell-based ELISA affinity of murine antibodies on HEK293T-Claudin18.2 (human) cells; format: binding
T1 construct: expressed in transfected cells
Could you please report measured Affinity HEK293T-18.2 EC50 for the items listed next?
Give bare numbers, in ng/mL.

Example cases with answers are listed next.
1. 25C7A5: anti-human Claudin18.2 murine monoclonal antibody, VH SEQ ID NO: 21, VL SEQ ID NO: 22 (antibody, V domains shown) VH: EVQLQQPGAELVKPGTSVKLSCKASGYTFTNYWLHWVRQRPGQGLEWIGMMHPISGSSNNNERFKSKATLTVDKSSTTAYMQLSRMTSEDSAVYYCARGLLSAMDYWGQGTSVTVSS VL: CIVLTQSPKSMSMSVGERVTLSCKASENVKTYVSWYQQRPEQSPKLLIYEASNRYTGVPDRFTGSGSATVFTLTISSVQTEDLANYFCGQTYSFPPTFGSGTKLEIK; 10.49
2. 40G11H2: anti-human Claudin18.2 murine monoclonal antibody, VH SEQ ID NO: 50, VL SEQ ID NO: 51 (antibody, V domains shown) VH: EVQLQQSGAELARPGASVKLSCKASGYTFTSYGIRWVKQRTGQGLEWIGEIYPRGGNTYYDEKFKGKATLTADKSSSTAYMGLRSLTSEDSAVYFCARADYGNSFAYWGQGTLVTVSA VL: DIVMTQSPSSLTVTAREKVTMSCKSSQSLLNSGNQKNYLTWYHQKPGQPPKLLIYWASTRESGVPDRFTGSGSGTDFTLTISSVQAEDLAVYFCQNAYFYPFTFGTGTKLEIK; 7.376

Would you kindly look at the next entry?
# Affinity HEK293T-18.2 EC50 lookup, item 2D3A11: anti-human Claudin18.2 murine monoclonal antibody, VH SEQ ID NO: 23, VL SEQ ID NO: 24 (antibody, V domains shown) VH: EVQLQQSGPELVKPGASVRMSCKASGYTFTSYVVHWVKQKPGQGLEWIGYINPYNADSKYNERFKGKATLTSDKSSNSAYMELSSLTSEDSAVYYCSRSYYGNSFDVWGAGTTVTVSS VL: DIVMTQSPSSLTVTTGEKVTMSCKSSQSLLNSGNQKNYLTWYQQKPGQSPKLLFFWASTRQSGVPDRFTGSGSGTYFTLTISSVQAEDLAVYYCQNDYYFPFTFGTGTKLEIK 8.143
